Measured viability, T/C of individual entries
System: 379773-124-R-J2-PDC spheroid viability
Test: Anticancer human tumor 379773-124-R-J2-PDC patient-derived endometrial carcinoma cell line growth inhibition [POLQ]
Conditions: second compound 0.1 µM; first compound 10 µM; hits give low values; spheroids with HUVEC and MSC
A number alone suffices; assume %.

Reference set (8 entries):
C#Cc1c(F)ccc2cc(O)cc(-c3ncc4c(N5CC6CCC(C5)N6)nc(OCC56CCCN5CC(F)C6)nc4c3F)c12 (stereo not given) + Cc1cccc(N(C)C(=O)C2C(O)CCN2c2nc(C)cc(C(F)(F)F)c2C#N)c1 :: 93
CCCS(=O)(=O)Nc1ccc(F)c(C(=O)c2c[nH]c3ncc(-c4ccc(Cl)cc4)cc23)c1F + Nc1ccc(C#CCN(C(=O)Cc2ncc(C(F)(F)F)cc2C(F)(F)F)c2ccc(F)cc2)nn1 :: 55
CC1COCCN1c1cc(C2(O)CC3CCC(C2)O3)c2cnn(-c3ccn[nH]3)c2n1 (stereo not given) + COC1C(OC(N)=O)C(O)C(Oc2ccc3c(O)c(NC(=O)c4ccc(O)c(CC=C(C)C)c4)c(=O)oc3c2C)OC1(C)C :: 2.55
CC(C)n1c(=O)n(C)c2cnc3cc(F)c(-c4ccc(OCCCN5CCCCC5)nc4)cc3c21 + COC1C(OC(N)=O)C(O)C(Oc2ccc3c(O)c(NC(=O)c4ccc(O)c(CC=C(C)C)c4)c(=O)oc3c2C)OC1(C)C :: 68.4
O=C(Nc1ccc(O)c(NS(=O)(=O)c2ccc(F)cc2)c1)c1ccc(-c2ccccc2)cc1 + Cc1cccc(N(C)C(=O)C2C(O)CCN2c2nc(C)cc(C(F)(F)F)c2C#N)c1 :: 85.8
COc1cccc2c1C(=O)c1c(O)c3c(c(O)c1C2=O)CC(O)(C(=O)CO)CC3OC1CC(N)C(O)C(C)O1 (stereo not given) + COC1C(OC(N)=O)C(O)C(Oc2ccc3c(O)c(NC(=O)c4ccc(O)c(CC=C(C)C)c4)c(=O)oc3c2C)OC1(C)C :: 0.1
COc1cc2cc(C(=O)CCC(=O)O)sc2cc1OC + COC1C(OC(N)=O)C(O)C(Oc2ccc3c(O)c(NC(=O)c4ccc(O)c(CC=C(C)C)c4)c(=O)oc3c2C)OC1(C)C :: 96.6
Nc1ccn(C2OC(CO)C(O)C2(F)F)c(=O)n1 (stereo not given) + Cc1cccc(N(C)C(=O)C2C(O)CCN2c2nc(C)cc(C(F)(F)F)c2C#N)c1 :: 8.33

Query: API: value(readout= viability, T/C, system= 379773-124-R-J2-PDC spheroid viability, query= CC1COCCN1c1cc(C2(S(C)(=N)=O)CC2)nc(-c2ccnc3[nH]ccc23)n1 (stereo not given) + COC1C(OC(N)=O)C(O)C(Oc2ccc3c(O)c(NC(=O)c4ccc(O)c(CC=C(C)C)c4)c(=O)oc3c2C)OC1(C)C )
Result: 5.69

Query: Then this compound: CC1COCCN1c1cc(-c2ccnn2C)c2ccnc(-c3ccn[nH]3)c2n1 (stereo not given) + Nc1ccc(C#CCN(C(=O)Cc2ncc(C(F)(F)F)cc2C(F)(F)F)c2ccc(F)cc2)nn1
Result: 8.99

###

Parameter: viability, T/C. Scope: all listed entries.
Test system: 379773-124-R-J2-PDC spheroid viability
Assay: Anticancer human tumor 379773-124-R-J2-PDC cell line growth inhibition [POLQ];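 further: spheroids exposed to drugs for seven days before readout; percent viability relative to DMSO vehicle control taken as 100%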
Conditions: second compound 0.1 µM; first compound 0.1 µM; hits give low values; spheroids with HUVEC and MSC
Give a bare numeral; the unit % is implied.

Please review the following examples before continuing.
Cn1ncnc1[C@H]1c2n[nH]c(=O)c3cc(F)cc(c23)N[C@@H]1c1ccc(F)cc1 + Nc1ccc(C#CCN(C(=O)Cc2ncc(C(F)(F)F)cc2C(F)(F)F)c2ccc(F)cc2)nn1 :: 55.8
O=c1[nH]cc(F)c(=O)[nH]1 + Cc1cccc(N(C)C(=O)C2C(O)CCN2c2nc(C)cc(C(F)(F)F)c2C#N)c1 :: 90.7

Attention now shifts to the item below.
Query: Field request: viability, T/C | item: COc1cccc2c1C(=O)c1c(O)c3c(c(O)c1C2=O)CC(O)(C(=O)CO)CC3OC1CC(N)C(O)C(C)O1 (stereo not drawn) + Cc1cccc(N(C)C(=O)C2C(O)CCN2c2nc(C)cc(C(F)(F)F)c2C#N)c1
Result: 28.3

###

Measured viability, T/C accompanies every entry in the list below.
System: 379773-124-R-J2-PDC spheroid viability
Assay: Anticancer human tumor 379773-124-R-J2-PDC cell line growth inhibition [POLQ];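 further: spheroids exposed to drugs for seven days before readout; percent viability relative to DMSO vehicle control taken as 100%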
Settings: second compound 0.1 µM; first compound 0.1 µM; hits give low values; spheroids with HUVEC and MSC
Report the value in % with no unit label.

Known viability, T/C results, listed for orientation:
CC1COCCN1c1cc(C2(S(C)(=N)=O)CC2)nc(-c2ccnc3[nH]ccc23)n1 (stereo not drawn) + Nc1ccc(C#CCN(C(=O)Cc2ncc(C(F)(F)F)cc2C(F)(F)F)c2ccc(F)cc2)nn1 :: 89.6
CC1COCCN1c1cc(C2(S(C)(=N)=O)CC2)nc(-c2ccnc3[nH]ccc23)n1 (stereo not drawn) + COC1C(OC(N)=O)C(O)C(Oc2ccc3c(O)c(NC(=O)c4ccc(O)c(CC=C(C)C)c4)c(=O)oc3c2C)OC1(C)C :: 85.2

Now let's try a different one.
Query: I would be grateful if you could share the reported viability, T/C for COc1cc(C2c3cc4c(cc3C(OC3OC5COC(C)OC5C(O)C3O)C3COC(=O)C23)OCO4)cc(OC)c1O (stereo not drawn) + Nc1ccc(C#CCN(C(=O)Cc2ncc(C(F)(F)F)cc2C(F)(F)F)c2ccc(F)cc2)nn1 .
Result: 86

###

viability, T/C values by entry
Tested on: 379773-124-R-J2-PDC spheroid viability
Assay: Anticancer human tumor 379773-124-R-J2-PDC cell line growth inhibition [POLQ];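 further: spheroids exposed to drugs for seven days before readout; percent viability relative to DMSO vehicle control taken as 100%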
Details: second compound 1 µM; first compound 1 µM; hits give low values; spheroids with HUVEC and MSC
I only need the number, in %, no unit after it.

Worked examples, 5 compounds total:
COc1cc(C2c3cc4c(cc3C(OC3OC5COC(C)OC5C(O)C3O)C3COC(=O)C23)OCO4)cc(OC)c1O (stereo not given) + Cc1cccc(N(C)C(=O)C2C(O)CCN2c2nc(C)cc(C(F)(F)F)c2C#N)c1 :: 57.1
CC1COCCN1c1cc(C2(O)CC3CCC(C2)O3)c2cnn(-c3ccn[nH]3)c2n1 (stereo not given) + Cc1cccc(N(C)C(=O)C2C(O)CCN2c2nc(C)cc(C(F)(F)F)c2C#N)c1 :: 10.9
CCc1c2c(nc3ccc(O)cc13)-c1cc3c(c(=O)n1C2)COC(=O)[C@]3(O)CC + Nc1ccc(C#CCN(C(=O)Cc2ncc(C(F)(F)F)cc2C(F)(F)F)c2ccc(F)cc2)nn1 :: 3.04
CCCS(=O)(=O)Nc1ccc(F)c(C(=O)c2c[nH]c3ncc(-c4ccc(Cl)cc4)cc23)c1F + Nc1ccc(C#CCN(C(=O)Cc2ncc(C(F)(F)F)cc2C(F)(F)F)c2ccc(F)cc2)nn1 :: 85.7
COc1cccc2c1C(=O)c1c(O)c3c(c(O)c1C2=O)CC(O)(C(=O)CO)CC3OC1CC(N)C(O)C(C)O1 (stereo not given) + Nc1ccc(C#CCN(C(=O)Cc2ncc(C(F)(F)F)cc2C(F)(F)F)c2ccc(F)cc2)nn1 :: 10.8

Query: Looking for the measured viability, T/C of COc1ccc([C@@H](O)c2cc(-c3ncnc4cc(N5CCOCC5)ccc34)c(F)cc2Cl)nn1 + Nc1ccc(C#CCN(C(=O)Cc2ncc(C(F)(F)F)cc2C(F)(F)F)c2ccc(F)cc2)nn1 , can you help?
Result: 99.9

Query: Would you mind doing COc1cccc(OCCCN)c1-c1cc(Nc2cnc(C#N)cn2)n[nH]1 + Nc1ccc(C#CCN(C(=O)Cc2ncc(C(F)(F)F)cc2C(F)(F)F)c2ccc(F)cc2)nn1 as well?
Result: 1.67

Query: Note, next up: CCc1cc2c(N3CCc4c(cc(Cn5ccnc5)cc4-c4cn(C)nc4C(F)(F)F)C3=O)ccnc2c(OC)n1 + Nc1ccc(C#CCN(C(=O)Cc2ncc(C(F)(F)F)cc2C(F)(F)F)c2ccc(F)cc2)nn1
Result: 64.8

Query: // repeat for O=c1[nH]cc(F)c(=O)[nH]1 + Cc1cccc(N(C)C(=O)C2C(O)CCN2c2nc(C)cc(C(F)(F)F)c2C#N)c1 and report
Result: 86.3

Query: Try C=CC(=O)N1CCN(c2nc(=O)n(-c3c(C)ccnc3C(C)C)c3nc(-c4c(O)cccc4F)c(F)cc23)C(C)C1 (stereo not given) + Nc1ccc(C#CCN(C(=O)Cc2ncc(C(F)(F)F)cc2C(F)(F)F)c2ccc(F)cc2)nn1 next.
Result: 93

Query: What about CCc1cc2c(N3CCc4c(cc(Cn5ccnc5)cc4-c4cn(C)nc4C(F)(F)F)C3=O)cc(C)nc2c(OC)n1 + Cc1cccc(N(C)C(=O)C2C(O)CCN2c2nc(C)cc(C(F)(F)F)c2C#N)c1 ?
Result: 59

Query: And then CC1COCCN1c1cc(C2(O)CC3CCC(C2)O3)c2cnn(-c3ccn[nH]3)c2n1 (stereo not given) + COC1C(OC(N)=O)C(O)C(Oc2ccc3c(O)c(NC(=O)c4ccc(O)c(CC=C(C)C)c4)c(=O)oc3c2C)OC1(C)C , what is it?
Result: 10.2

Query: Input CC1COCCN1c1cc(C2(S(C)(=N)=O)CC2)nc(-c2ccnc3[nH]ccc23)n1 (stereo not given) + Nc1ccc(C#CCN(C(=O)Cc2ncc(C(F)(F)F)cc2C(F)(F)F)c2ccc(F)cc2)nn1
Result: 85.3

Query: Another: O=C(Nc1ccc(O)c(NS(=O)(=O)c2ccc(F)cc2)c1)c1ccc(-c2ccccc2)cc1 + COC1C(OC(N)=O)C(O)C(Oc2ccc3c(O)c(NC(=O)c4ccc(O)c(CC=C(C)C)c4)c(=O)oc3c2C)OC1(C)C
Result: 79

Sourced from PubChem BioAssay AID1963848
